Test system: MS2 coat protein
Assay: apparent KD of MS2 coat protein; designed switch direction (-1 OFF switch, 1 ON switch): 1; higher = weaker reporter binding
Settings: Eterna round: R95; input ligand: none
measurementName: apparent KD of MS2 coat protein (nM)
Numbers only, in nM.

The cases that follow already have their apparent KD of MS2 coat protein on record.
>  <macromoleculeSequence>
AACAAUCUAUCUGAGGAUAUCAUGAAAUUAACAUGAGGAUCACCCAUGUGCAGGAAAACUGCAUAUGAGAAGGCAGAUAGAUUGA [salish99_ss2_r3_033] (puzzle: Same State 2)

>  <unitOfMeasurement>
nM

>  <apparent KD of MS2 coat protein>
2020

$$$$
>  <macromoleculeSequence>
GUGCAACCGUGUGAGGAUAUCGGUGAAUAGACAUGAGGAUCACCCAUGUCCGAAGCUCGGUUCUCCGAGAAGGCGCACAGUUGCA [Same State 2 - Mod of Erisin v.5] (puzzle: Same State 2)

>  <unitOfMeasurement>
nM

>  <apparent KD of MS2 coat protein>
52.4

$$$$
>  <macromoleculeSequence>
GCAGUACUAGCAGAGGAUAUGUCGAUAACGACAUGAGGAUCACCCAUGUGUACGGAAGUACUCAGACAGAAGGCUGAGUACUGCU [Same State 2 - Hyphema v.2] (puzzle: Same State 2)

>  <unitOfMeasurement>
nM

>  <apparent KD of MS2 coat protein>
41.8

$$$$
>  <macromoleculeSequence>
UGGAUCUAGGCUUGCCUGGGUCCAUGCUGACAUGAGGAUCACCCAUGUGCAUCCUACAAGCUUUUUGCUUGUCAGUU (puzzle: Sensor for hsa-mir-208a)

>  <unitOfMeasurement>
nM

>  <apparent KD of MS2 coat protein>
135

$$$$

Kindly review the next sequence as well.
## Input Record request: apparent KD of MS2 coat protein value, item AUAAAACAUGAGGAUCACCCAUGUUAACAAAGUCGAGGAUAUGGGCAAAUAAAAUAAGAACCAGAAGGCGAAUAAU [salish99_ss1_r3_045] (puzzle: Same State 1)
## Output 27.7
